Recorded values, source PubChem BioAssay (NCI).

Entries and their growth inhibition values follow.
Test: NCI Yeast Anticancer Drug Screen. Data for the bub3 strain (AID 167)
Details: S. cerevisiae bub3 mutant strain, at 1.2 µM, active compounds read high
Description: Growth inhibition of yeast strains with defined genetic alterations is measured as a screen for potential anti-cancer activity. Selected strains with alterations in DNA damage repair or cell cycle control were exposed to compounds and growth inhibition was measured relative to vehicle treated controls. The strain used in this assay is bub3
About 79,000 compounds went through this panel and 15% of them were active in at least one assay; those are over-represented in the sample as a whole. Active and inactive are the calls of the source. Cut-off read from the data, not from the text of the source: active = growth inhibition above about 70%; inactive = the rest.

{"columns": ["compound", "growth inhibition"],
 "data": [
  ["CC(C)OC(=O)Oc1ccccc1OC(=O)OC(C)C", "0% (inactive)"],
  ["CCN(CC)CC(O)c1ccc2ccc3ccccc3c2c1 (centres undefined)", "1% (inactive)"],
  ["COC(=O)C1=C(C)NC(C)=C(C(=O)OCCCN2CCC(c3ccccc3)(c3ccccc3)CC2)C1c1cccc([N+](=O)[O-])c1 (centres undefined)", "11% (inactive)"],
  ["C=CCC1=C(C)C(OC(=O)/C=C/c2ccccc2)CC1=O (centres undefined)", "7% (inactive)"],
  ["COC(=O)C1=C(C(=O)OC)C2(C)C=CC1O2 (centres undefined)", "-9% (inactive)"],
  ["CCCCOC(=O)N[C@H]1CCc2cc(OC)c(OC)c(OC)c2-c2ccc(SC)c(=O)cc21", "-9% (inactive)"],
  ["Nc1nc(Cl)c(Cl)c(Cl)n1", "-4% (inactive)"],
  ["CCC(C)COC(=O)c1ccc(N=Cc2ccc(C=Nc3ccc(C(=O)OCC(C)CC)cc3)cc2)cc1 (centres undefined)", "7% (inactive)"],
  ["CCCS(=O)(=O)Nc1ccc(Nc2c3ccccc3nc3ccccc23)c(OC)c1", "-67% (inactive)"],
  ["CCCCCCCCCC/C=C\\C(=O)O", "-6% (inactive)"],
  ["O=CC=C(c1ccccc1)c1ccccc1", "-11% (inactive)"],
  ["COc1cc(CC2CC(c3ccc4c(c3)OCO4)OC2=O)cc(OC)c1OC (centres undefined)", "15% (inactive)"],
  ["CCCc1cc(C(=O)OCC)cc(CCC)c1O", "0% (inactive)"],
  ["COc1ccc(C2c3cc4c(cc3OC(C)(O)C2C)OCO4)c(OC)c1 (centres undefined)", "-4% (inactive)"],
  ["O=C(CCCN1CCC(O)(c2ccc(Cl)cc2)CC1)c1ccc(F)cc1", "38% (inactive)"],
  ["O=C1c2ccccc2-c2n[nH]c3cccc1c23", "-1% (inactive)"],
  ["COc1ccccc1C(=O)OCC1CCCN2CCCCC12 (centres undefined)", "-9% (inactive)"],
  ["Cc1ccc2ccc(O)cc2c1", "4% (inactive)"],
  ["CC(=O)Nc1ccc2c(c1)C(=Nc1ccc(C(=O)O)cc1)c1ccccc1-2", "-2% (inactive)"],
  ["CCC(=O)c1cccc2ccccc12", "-6% (inactive)"],
  ["O=c1c2ccccc2ncn1COCc1ccccc1", "-20% (inactive)"],
  ["O=C(Nc1ccccc1)C(=O)C(C(=O)c1ccccc1)C(c1ccccc1)c1ccccc1 (centres undefined)", "2% (inactive)"],
  ["O=[N+]([O-])c1cc2no[n+]([O-])c2cc1N1CCCCC1", "-24% (inactive)"],
  ["c1ccc(-c2ccnc3c2ccc2c(-c4ccccc4)ccnc23)cc1", "24% (inactive)"]
]}

###

Assay: NCI Yeast Anticancer Drug Screen. Data for the mgt1 strain (AID 153)
Conditions: S. cerevisiae mgt1 mutant growth inhibition; at 3.7 µM
About 79,000 compounds went through this panel and 15% of them were active in at least one assay; those are over-represented in the sample as a whole. Calls of active or inactive are those of the source. Cut-off read from the data, not from the text of the source: active = growth inhibition above about 70%; inactive = the rest.
Labels: true (active), false (inactive)

{"columns": ["compound", "classification"],
 "data": [
  ["c1ccc2c(c1)-c1nc3ccccc3cc1C2N1CCOCC1 (configuration not stated)", "false"],
  ["C/C(=N/NC(=S)N1CCCCCC1)c1cccc(/C(C)=N\\NC(=S)N2CCCCCC2)n1", "false"],
  ["CCOC(=O)C1=C(C(=O)c2ccccc2)C(c2ccccc2[N+](=O)[O-])C(C(=O)c2ccccc2)=C(C(=O)OCC)N1", "false"],
  ["COc1ccc2ccc3ccccc3c2c1C=O", "false"],
  ["CN(C)c1ccc(Sc2ccc3nc(N)nc(N)c3c2)cc1", "false"],
  ["CC(C)=CC(=O)O[C@@H]1CC(C)(C)CC2C3=CCC4[C@]56CC[C@](O)(OC5)C(C)(C)C6CC[C@@]4(C)C3(C)CC[C@]21C(=O)O (some centres not stated)", "false"],
  ["COC(=O)CCNc1c2ccccc2nc2cccc([N+](=O)[O-])c12", "true"],
  ["CSC1=NNC(SC)=NN1", "false"],
  ["C=CCC1=C(C)C(OC(=O)/C=C/c2ccccc2)CC1=O (configuration not stated)", "false"],
  ["CC(C)NC(=O)OCc1c(COC(=O)NC(C)C)c(-c2ccc(Cl)c(Cl)c2)n2c1CCC2", "false"],
  ["COCCOC(=O)CCn1cc(F)c(=O)[nH]c1=O", "false"],
  ["O=[N+]([O-])c1ccc2nc3ccccc3cc2c1", "false"],
  ["Cc1ccc2[nH]c3c(C)c4cc[n+](C)cc4c(C)c3c2c1", "false"],
  ["Cc1c(C(=O)C(=O)c2ccccc2)c(C)c(C(=O)C(=O)c2ccccc2)c(C)c1C(=O)C(=O)c1ccccc1", "false"],
  ["O=C1C=CC(=O)c2c(O)c(Nc3ccc(OC(F)(F)F)cc3)c(Cl)c(O)c21", "false"],
  ["O=[n+]1c2ccc(Cl)cc2n([O-])c2ccc(Cl)cc21", "false"],
  ["O=C(NCCCCCCCN1CCCCCCC1)C(C1CCCCC1)C1CCCCC1", "true"],
  ["COc1ccc(/C(C)=N/OC(=O)c2c(-c3ccccc3Cl)noc2C)cc1CN1CCOCC1", "false"],
  ["c1ccc2c(c1)sc1cc3ccncc3cc12", "false"],
  ["CN(C)c1nc2sc3c(c2c(=O)o1)CCCC3", "false"],
  ["CCCCCCCCCCCCCCC(C(=O)[O-])[n+]1ccccc1 (configuration not stated)", "false"],
  ["CC(=O)Nc1ccc(SC(C)=O)cc1", "false"]
]}

###

Assay: NCI Yeast Anticancer Drug Screen. Data for the rad50 strain (AID 155);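 note: 0% = growth of vehicle-only cultures of the same strain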
Settings: S. cerevisiae rad50 strain growth inhibition; at 11.0 µM; active compounds read high
This is part of a sample that, as a whole, favours compounds with a hit. Of some 79,000 tested, about 15% had one in any assay.
We use 30% as the dividing line for growth inhibition: on or above the line is t, below is f.

{"columns": ["molecule", "classification"],
 "data": [
  ["CC(=O)N/N=C/C(C)(C)C(C)(C)/C=N/NC(C)=O", "f"],
  ["Fc1ccc(NC(=S)SCc2ccc(Cl)c(Cl)c2)cc1F", "t"],
  ["Cc1c(C2=C(Br)C(=O)N(C)C2=O)c(=O)n(C)c(=O)n1C", "t"],
  ["COc1cc(C2SCC(=O)N2c2nnc(C(F)(F)F)s2)cc(OC)c1OC (stereo unspecified)", "f"],
  ["c1ccc2c(c1)c1ncccc1c1nccnc21", "t"],
  ["Cc1ccc(S(=O)(=O)NC(=O)NC2=NC(C)(C)N(c3ccc(Cl)c(Cl)c3)C(N)=N2)cc1", "f"],
  ["CCOC(=O)c1cnc2c(C(F)(F)F)cccc2c1N=[N+]=[N-]", "f"],
  ["CN1CCc2ccccc2C1Cc1ccccc1NC(=O)c1sc2ccccc2c1Cl (stereo unspecified)", "f"],
  ["N#CSc1ccc(S(N)(=O)=O)cc1", "f"],
  ["Cc1ccc(S/N=C\\c2ccccc2O)cc1", "f"],
  ["O=C1C=CC(=O)N1c1ccc2c(c1)Cc1cc(NC(=O)C(F)(F)F)ccc1-2", "t"]
]}

###

Assay: NCI Yeast Anticancer Drug Screen. Data for the rad18 strain (AID 177)
Details: S. cerevisiae rad18 mutant growth inhibition; at 11.0 µM
The panel holds about 79,000 compounds, 15% with a hit somewhere; the sample as a whole holds those more often. Activity calls are given as the source filed them. Cut-off read from the data, not from the text of the source: active = growth inhibition above about 70%; inactive = the rest.
Labels: active, inactive

{"columns": ["molecule", "classification"],
 "data": [
  ["O=C1c2ccccc2C(=O)c2cc(CBr)ccc21", "inactive"],
  ["O=CC=C(c1ccccc1)c1ccccc1", "inactive"],
  ["COC1=CC(=O)C(C2(OC(C)C)OC(=O)C(Cl)=C2Cl)=CC1=O (centres undefined)", "active"],
  ["CC[C@@]1(O)C(=O)OCc2c1cc1n(c2=O)Cc2cc3c(N)cccc3nc2-1", "inactive"],
  ["CCC(=O)c1cccc2ccccc12", "inactive"],
  ["Fc1ccc(NC(=S)SCc2ccc3c(c2)OCO3)cc1F", "active"],
  ["Cc1ccc2[nH]c3c(C)c4cc[n+](C)cc4c(C)c3c2c1", "inactive"],
  ["COC(=O)CSSCc1ccc([N+](=O)[O-])cc1", "inactive"],
  ["O=C1C2C=CC1C1C(=O)OC(=O)C21 (centres undefined)", "inactive"],
  ["C[Si](C)(C)CNC(=O)OCc1ccccc1", "inactive"],
  ["O=C(c1cc(Br)ccc1O)c1cc(Br)ccc1O", "active"],
  ["COP(=O)(OC)/C(=C\\C1=CN(C(c2ccccc2)(c2ccccc2)c2ccccc2)CN1)NC=O", "inactive"],
  ["O=[N+]([O-])C(=C(Sc1ccccc1)Sc1ccccc1)C(Cl)=C(Cl)Cl", "inactive"],
  ["CC1OCC2OC(C)OC(C3C4=C(CC(C)(C)CC4=O)OC4=C3C(=O)CC(C)(C)C4)C2O1 (centres undefined)", "inactive"],
  ["CC(=O)[O][Bi]([c]1ccccc1)[c]1ccccc1", "active"],
  ["CC(=O)N/N=C/C(C)(C)C(C)(C)/C=N/NC(C)=O", "inactive"],
  ["CC(=O)OCCOCNC(=S)N/N=C(\\C)c1cnccn1", "inactive"],
  ["COc1ccc2c(c1)C(=O)c1ccccc1C2", "inactive"],
  ["COc1ccc2sc3cccc(NCCN(C)C)c3c(=O)c2c1", "inactive"],
  ["Nc1ccn(C2OC(CO)C3[O][Sn]([c]4ccccc4)([c]4ccccc4)[O]C32)c(=O)n1 (centres undefined)", "inactive"],
  ["CCCCCCCCCC/C=C\\C(=O)O", "inactive"],
  ["Cc1ccc2ccc3cccc4ccc1c2c34", "inactive"],
  ["CCCCOC(=O)N[C@H]1CCc2cc(OC)c(OC)c(OC)c2-c2ccc(SC)c(=O)cc21", "inactive"],
  ["O=c1c2ccccc2ncn1COCc1ccccc1", "inactive"]
]}
